Target: T1, IL-17 (IL-17A) (Homo sapiens, UniProt Q16552 Q16552:24-155)
T1 sequence: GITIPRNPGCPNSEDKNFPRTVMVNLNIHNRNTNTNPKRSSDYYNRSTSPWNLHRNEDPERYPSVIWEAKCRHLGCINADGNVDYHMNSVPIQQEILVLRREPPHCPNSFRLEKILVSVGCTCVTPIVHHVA
Assay: SPR; solution A, tRNA
Details: tags: Peprotech; chain copies: 2
assayEndpoint: binding result

SEQ 6 (ssRNA, 2'-F pyrimidines) RNA: GGGAGCAGGAGAGAGGUCAGAUGGUGAUGCAUAGGAGUGGAGUCAGAUAUAGCCCUAUGCGUGCUAGUGUGA ... binds
SEQ 32 (ssRNA, 2'-F pyrimidines) RNA: GGGAGCAGGAGAGAGGUCAGAUGGGCAGCGGAGGAUGGCGAAGUCAUUGGGCGCCUAUGCGUGCUGGUGGAG ... binds
SEQ 5 (ssRNA, 2'-F pyrimidines) RNA: GGGAGCAGGAGAGAGGUCAGAUGAGCGCCAUAGGGUAGAGAAGCCAUUGAUCACCUAUGCGUGCUAGUGUGA ... binds
